FYI, the data here is from ChEMBL document CHEMBL2218924.

Molecular target: Rho-associated protein kinase 1 (Homo sapiens) (UniProt Q13464)
Sequence (Q13464 2-1354 limits assumed): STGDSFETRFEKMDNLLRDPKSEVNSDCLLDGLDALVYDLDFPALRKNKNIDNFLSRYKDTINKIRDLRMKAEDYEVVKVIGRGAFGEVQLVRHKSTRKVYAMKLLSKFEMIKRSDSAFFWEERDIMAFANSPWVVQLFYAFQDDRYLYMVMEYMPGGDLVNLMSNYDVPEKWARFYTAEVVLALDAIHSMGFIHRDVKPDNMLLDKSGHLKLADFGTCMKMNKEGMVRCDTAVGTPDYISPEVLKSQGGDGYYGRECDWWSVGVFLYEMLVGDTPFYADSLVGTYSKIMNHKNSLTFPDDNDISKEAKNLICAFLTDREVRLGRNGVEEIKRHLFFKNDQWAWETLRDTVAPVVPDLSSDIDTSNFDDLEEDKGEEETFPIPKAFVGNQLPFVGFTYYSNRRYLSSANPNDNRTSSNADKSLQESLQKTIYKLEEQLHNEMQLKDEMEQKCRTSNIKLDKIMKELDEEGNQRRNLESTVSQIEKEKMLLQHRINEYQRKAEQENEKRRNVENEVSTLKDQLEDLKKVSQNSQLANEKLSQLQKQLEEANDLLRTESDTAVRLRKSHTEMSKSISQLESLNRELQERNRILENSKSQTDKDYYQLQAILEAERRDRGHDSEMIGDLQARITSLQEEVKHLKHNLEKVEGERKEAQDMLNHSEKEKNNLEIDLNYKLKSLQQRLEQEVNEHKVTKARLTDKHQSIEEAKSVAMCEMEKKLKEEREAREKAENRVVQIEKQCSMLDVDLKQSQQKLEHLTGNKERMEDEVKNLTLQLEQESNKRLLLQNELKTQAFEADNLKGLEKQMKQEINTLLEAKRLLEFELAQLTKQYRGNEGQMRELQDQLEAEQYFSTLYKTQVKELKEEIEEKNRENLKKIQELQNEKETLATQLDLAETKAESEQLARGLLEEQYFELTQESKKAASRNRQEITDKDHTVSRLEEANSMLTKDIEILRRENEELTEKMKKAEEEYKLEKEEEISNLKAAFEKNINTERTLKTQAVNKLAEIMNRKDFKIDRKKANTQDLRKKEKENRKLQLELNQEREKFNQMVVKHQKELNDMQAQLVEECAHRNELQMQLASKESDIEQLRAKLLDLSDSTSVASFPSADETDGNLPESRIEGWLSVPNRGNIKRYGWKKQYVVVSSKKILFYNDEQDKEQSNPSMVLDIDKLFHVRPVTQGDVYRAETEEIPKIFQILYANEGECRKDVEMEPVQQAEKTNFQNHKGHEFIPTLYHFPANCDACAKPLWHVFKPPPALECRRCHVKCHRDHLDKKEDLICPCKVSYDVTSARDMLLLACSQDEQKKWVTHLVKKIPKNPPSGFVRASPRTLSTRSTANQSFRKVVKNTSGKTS
Conditions: at 10 µM
Below: a set of entries, each annotated with reported residual activity.

{"item_smiles": "COc1ccc(C(=O)Nc2sc3c(c2C(N)=O)CCCC3)cc1OC", "residual activity [%]": 119}
{"item_smiles": "COc1cc2ncnc(Nc3ccc(Oc4ccccc4)cc3)c2cc1OC", "residual activity [%]": 126}
{"item_smiles": "c1ccc(-c2n[nH]c3c2oc2ccccc23)cc1", "residual activity [%]": 126}
{"item_smiles": "O=C1Nc2cc(Br)ccc2/C1=C1/Nc2ccccc2/C1=N\\O", "residual activity [%]": 102}
